experiment: AUC (0 to infinity) in male Sprague-Dawley rat at 10 mg/kg, po; type: ADME, organism-based; parameters: dose 10 mg/kg, route oral, time infinity; conditions: in vivo
ENDPOINT: AUC(0-inf) (ng·h/mL)
Report as a plain number; the unit ng·h/mL is understood.

Given the molecule `N[C@@H](CC(=O)N1CCn2c(nnc2C(F)(F)F)C1)[C@H]1CCc2cc(F)c(F)cc21` , what is its reported AUC(0-inf)?
2850

---

test: Plasma clearance in male Sprague-Dawley rat at 10 mg/kg, po; type: ADME, organism-based
ENDPOINT: CL/F (mL/min/kg)
Quick reminder: number only, in mL/min/kg, skip the unit.

Field request: CL/F | item: `N[C@@H](CC(=O)N1CCn2c(nnc2C(F)(F)F)C1)[C@H]1CCc2cc(F)c(F)cc21`
59.1

---

assay: Oral bioavailability in male Sprague-Dawley rat at 10 mg/kg; format: ADME, organism-based; settings: in vivo
ENDPOINT: bioavailability
Report field: quantity (unit follows the number).

Query (molecule): `N[C@@H](CC(=O)N1CCn2c(nnc2C(F)(F)F)C1)[C@H]1CCc2cc(F)c(F)cc21` ; field requested: bioavailability
61%

---

experiment: Metabolic stability in rat liver microsome assessed as turnover after 84 mins; type: ADME; conditions: liver microsomes, read-out: Drug metabolism
ENDPOINT: metabolised at 1.4 h (%)
Your answer should be a plain number; it is taken to be in %.

Record request: metabolised at 1.4 h value, item `N[C@@H](CC(=O)N1CC(=O)Nc2ccccc2C1)[C@H]1CCc2cc(F)c(F)cc21`
50

---

test: AUC (0 to infinity) in male Sprague-Dawley rat at 5 mg/kg, iv; assay type: ADME, organism-based; design: dose 5 mg/kg, time infinity, route intravenous; settings: in vivo
ENDPOINT: AUC(0-inf) (ng·h/mL)
The reply should contain only the number, in ng·h/mL.

Would you kindly share the measured AUC(0-inf) for `N[C@@H](CC(=O)N1CCn2c(nnc2C(F)(F)F)C1)[C@H]1CCc2cc(F)c(F)cc21` ?
2270

---

experiment: Tmax in male Sprague-Dawley rat at 10 mg/kg, po; type: ADME, organism-based; conditions: in vivo
ENDPOINT: Tmax (min)
Answer format: numeric, min implied, no suffix.

Which Tmax is listed for `N[C@@H](CC(=O)N1CCn2c(nnc2C(F)(F)F)C1)[C@H]1CCc2cc(F)c(F)cc21` ?
33

---

Let's look at some compounds and their measured inhibition (INH).
tested on: Mus musculus; test: Anti-diabetic effect in ICR mouse assessed as plasma glucose lowering effect at 10 mg/kg, po treated 8 hrs before 2.5 g/kg, po glucose load measured after 8 hrs by Oral glucose tolerance test relative to control
Entry rule: numbers only, all in %.

> print(dat)
                               given.smiles  observed.measurement
1  N[C@@H](CC(=O)N1CCn2c(nnc2C(F)(F)F)C1)[C@H]1CCc2cc(F)c(F)cc21                    24
2  N[C@@H](CC(=O)N1CCn2c(nnc2C(F)(F)F)C1)Cc1cc(F)c(F)cc1F                    24
3  CN1C(=O)CN(C(=O)C[C@H](N)[C@H]2CCc3cc(F)c(F)cc32)Cc2ccccc21                    38
4  CN1C(=O)CN(C(=O)C[C@H](N)[C@H]2CCc3cc(F)c(F)cc32)Cc2ccc(F)cc21                    30

May I ask what inhibition (INH) has been recorded for `N[C@@H](CC(=O)N1CC(=O)Nc2ccccc2C1)[C@H]1CCc2cc(F)c(F)cc21` ?
35

These measurements were taken from ChEMBL document CHEMBL3580611.
